Molecular target: Human EphA2 (Ecto) (Human) (UniProt P29317)
Sequence (P29317 24-537): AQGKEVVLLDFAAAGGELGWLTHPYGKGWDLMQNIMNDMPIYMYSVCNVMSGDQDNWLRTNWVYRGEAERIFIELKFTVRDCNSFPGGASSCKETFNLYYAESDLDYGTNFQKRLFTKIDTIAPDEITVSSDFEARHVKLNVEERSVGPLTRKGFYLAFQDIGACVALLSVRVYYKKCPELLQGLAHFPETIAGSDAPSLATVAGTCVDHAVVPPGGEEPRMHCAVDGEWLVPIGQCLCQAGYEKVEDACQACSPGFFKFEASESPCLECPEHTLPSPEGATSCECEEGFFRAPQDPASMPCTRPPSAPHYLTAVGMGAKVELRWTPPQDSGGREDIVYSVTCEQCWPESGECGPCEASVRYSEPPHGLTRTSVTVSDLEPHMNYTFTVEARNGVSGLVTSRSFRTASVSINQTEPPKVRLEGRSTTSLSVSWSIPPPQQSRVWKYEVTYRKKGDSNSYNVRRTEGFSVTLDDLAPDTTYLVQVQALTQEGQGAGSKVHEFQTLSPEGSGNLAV
Experiment: FP competition, tracer Compound 18
Starred links: 1 amine or outer side, 2 acyl side, 3 side chain; linkers in the order of their positions; H or OH if unused. Positions of bridges follow the written chain, without caps; N, C: chain ends. Non-standard residues stand in square brackets, D forms with d. No end group written: not given here. 1Nal = N[C@@H](Cc1cccc2ccccc12)C(=O)O; TBMB = c1c(C[*:1])cc(C[*:3])cc1C[*:2]; hArg = N=C(N)NCCCC[C@H](N)C(=O)O; Tle = CC(C)(C)[C@H](N)C(=O)O; Aib = CC(C)(N)C(=O)O; βAla = NCCC(=O)O; Sar = CNCC(=O)O
Quantity: Ki (nM)
Numbers only, in nM.

Binder: Ac-[Sar][Sar]H[dD]VTCP[1Nal]G[Aib]F[1Nal]CP[Tle]NR[Aib]GC (linker 7-14-21 via TBMB) [Bicycle Compound 285]
Ki [nM]: 1.21

For the next question, use this binder.
Query string: Tell me the measured Ki of [βAla][Sar][Sar][Sar][Sar][Sar][Sar][Sar][Sar][Sar][Sar]H[dD]VPC[Aib][1Nal]GP[hArg][1Nal]CP[Tle]NR[Aib]GC (linker 16-23-30 via TBMB) [Bicycle Compound 243] , please.
Result string: 2.83
